Origin of the recorded values: the supplement of paper PMC9170038

system: MS2 coat protein; assay: apparent KD of MS2 coat protein; designed switch direction (-1 OFF switch, 1 ON switch): 1; higher = weaker reporter binding; conditions: input ligand: FMN 200 uM
Tag: yes (1) if measured apparent KD of MS2 coat protein is not below 30 nM, no (0) if it is.

Example entries begin here.
sequence_input	target_or_system	discrete_label
UUGAUGUACUGAGGAUAUCGUGUCGUCUGUUUUUACAUGAGGAUCACCCAUGUGGGUUGUGGUAUCGAGAAGGCAGUUUUCUUA [JR_SSNG2_Sub030] (Eterna round: R96, puzzle: Same State NG 2)	MS2 coat protein	yes (1)
GUAGCAUACCGAGGAUAUUCAUAUUACAUGAGGAUCACCCAUGUUAUUUAGGCCAAAAGGCCUUGGGAGAAGGCGGAAUGCUAC [Xeonanis - 20 Mod8] (Eterna round: R96, puzzle: Same State NG 2)	MS2 coat protein	no (0)
GGAAUAUGAUGUUACAUGAGGAUCACCCAUGUAGUGACAACUAAGGAUAUCUGAAAAGAAGGAGAGGAGAAGGUAGGAUCAUAA [AK SSNG3-V2-14.1] (Eterna round: R96, puzzle: Same State NG 3)	MS2 coat protein	no (0)
UGACACACGGCAGGAUAUCGAUUCCAAAGGAAUCGAGAAGGGCCUCAUGUCGUGGAAACGUGACAUGAGGAUCACCCAUGUCGC [Omei SS(NG)1 Cv16] (Eterna round: R96, puzzle: Same State NG 1)	MS2 coat protein	yes (1)

[ask] Check this sequence for apparent KD of MS2 coat protein at or above 30 nM: AAACAGUCGCUGCGGCGACCACAUGAGGAUCACCCAUGUACAUAGGAUAUCGCCUAAAAUACUGGCGAGAAGGGUGAUUAAAGA [Vegeonor] (Eterna round: R96, puzzle: Same State NG 3)
[reply] yes (1)

---

tested on: MS2 coat protein; assay: apparent KD of MS2 coat protein; designed switch direction (-1 OFF switch, 1 ON switch): -1; higher = weaker reporter binding; conditions: input ligand: FMN 200 uM
Would you kindly list apparent KD of MS2 coat protein for each of these sequences?
Give bare numbers, in nM.

sequence_input	target_or_system	apparent KD of MS2 coat protein, nM
UACAUGAGGAUCACCCAUGUUUUGUCGUGUAUGGUAUUUAUCUAGGAUAUCAAUUUAUUAAUUUAUGAGAAGGAGAAUAUUAAU [JMF's solution 20] (Eterna round: R96, puzzle: Exclusion NG 3)	MS2 coat protein	34.4
GUCAUCACACAUGGGAUCAACAUGAGGAUCACCCAUGUUGUCAAGUUUUUUGCUCGUCUUAUAAUACGUUUGAUGAC [Mod-Jxc] (Eterna round: R97, puzzle: Sensor, turn-off variant 1)	MS2 coat protein	26.7
GGCUAGUCAGGAUAUACGAACAUGUCAAAAGACGUGAAGGGACAUGAGGAUCACCCAUGUAGAAGGGACUAGCC [salish99_ex2_r3_004] (Eterna round: R96, puzzle: Exclusion 2)	MS2 coat protein	181
UAUAUGUCAGGAUAUUAGUAGUAAAUGAAUAAAAUUAUUACUGAGAAGGGACAUGAGGAUCACCCAUGUGUCUC [Mat - Exclusion 4 - Eli Mod - D26] (Eterna round: R97, puzzle: Exclusion 4)	MS2 coat protein	577

// switching to the query sequence
Reported apparent KD of MS2 coat protein ( CCUCGUUGGGAGGAUAUCCUUUAGAUUGGAGGAGGAGAAGGCUCGACAUGAGGAUCACCCAUGUAAAAUUUAAA [-18.7, -17.5 kcal, A 31%] (Eterna round: R97, puzzle: Exclusion 6) ) = 274

---

Hi there, I'd appreciate the recorded apparent KD of MS2 coat protein for every entry that follows.
system: MS2 coat protein; assay: apparent KD of MS2 coat protein; higher = weaker reporter binding; settings: Eterna round: R107; input ligand: theophylline 20 uM
The answer should read as a number with its unit following.

// solved cases for apparent KD of MS2 coat protein follow
sequence_input	apparent KD of MS2 coat protein
GGUCUCGCGGGCGAUACCAGCUUGAUCGUACUGGCCUGGUACAUGAGGAUCACCCAUGUAAGCCCUUGGCAGCGCGCGCGAGACC [#1 Exclusion - Theophylline B Attempt #5 (HarryS)]	16.4 nM
UGAUCCUGCAGGGAUACCAGCGCCGCUAGAUAACUAUGCACAUGAGGAUCACCCAUGUAACGCCCUUGGCAGCCCAACUAAAGGG [Same State Theophylline B GF21]	41 nM
CAUAUAUAUUGAAGGAGCGACAUGAGGAUCACCCAUGUCUACCACGUCGAAAGACGCUCAUGUCAGGUAGGUCGCAAUAUAUAUG [Astros-Eli-mod5]	86.2 nM

Record apparent KD of MS2 coat protein for all entries; do not skip any.
1. GUGGCGAUCACGGCCGCCACUGAGCAGGUCGAGCUUGACAUGAGGAUCACCCAUGUCUGACGAUACAGGACCGGGUGAUCUCCGC [Titiinanon]
2. AUAACAUGAGGAUCACCCAUGUAAGGUGAUACCAGACGAAGUAAAGUCCCUUGGCAGCACAAGUAAAGUUACGAAUAUUGAUAGA [JR_SSTheophyA_Sub004]
3. ACGUCCGGGUUAAUCGUGGGCAUGGUCGAUACCAGUAUUUUAAUCUACCCUUGGCAGCGACAUGAGGAUCACCCAUGUGCGAUGA [XTheo A #17]

[reply]
1: 94.6 nM; 2: 416 nM; 3: 22.8 nM

---

test system: MS2 coat protein; assay: apparent KD of MS2 coat protein; higher = weaker reporter binding; conditions: Eterna round: R107; input ligand: tryptophan 2.4 mM
Everything with apparent KD of MS2 coat protein lower than 0.06 µM is 0; everything else, including exactly 0.06 µM, is 1.

Take a look at these entries with their results.
sequence_input	target_or_system	discrete_label
GCGAUGGAGCGAAGGAGCGUGCUGGUACAUGAGGAUCACCCAUGUGAGUCGCAGCGCUAAGCACAGGUAGGUCGCGCUCCAUCGC [EAB NP+V+V2 #11]	MS2 coat protein	0
UCAUGACAUGGGAAUAAAUAAGAAGGCGAAGGAGCGUGAAGAUUCACAGGUAGGUCGCGCAAAAUACAUGAGGAUCACCCAUGUU [JR_Nu_ExcArginiA_Sub032]	MS2 coat protein	0
CAGAGCUACCGGGAUACCAGAAUUGGUAUUCCUAUAUUUCUUACAUGAGGAUCACCCAUGUUCCCUUGGCAGCUUGGUAGCUCUG [ETHB #9]	MS2 coat protein	1
CUAAGAGCGGCGGCCGCCACUGGUAACCGAGAGGAGGAGCUUCUGAACAUGAGGAUCACCCAUGUCAGGACCGGGUCGUCUUAGA [Same State - Tryptophan B]	MS2 coat protein	0

[ask] hey, is apparent KD of MS2 coat protein for this one >= 0.06 µM? CCAUGCAGGUCGGCCGCCACUACACACAUGAGGAUCACCCAUGUAGUUACUGGGUGAAGUGGCAGUAGGACCGGGACCUGCAUAC [Brourdmod12]
[reply] 1

[ask] Test whether the sequence UAAAAUAUCUGGGUGUAGGUAAUAACAGAUACCAGCCAGAUAACUGGCCCUUGGCAGCUGAAAACAUGAGGAUCACCCAUGUAAA [TheoAS 22 #OpenEnded #Ms2Late] records apparent KD of MS2 coat protein of 0.06 µM or higher.
[reply] 0

[ask] Tell me whether apparent KD of MS2 coat protein is at least 0.06 µM here: AUUAAAGUUUAUAAGGAAAUUGAAACAGAAGGAGCGUGAGUAAUCACAGGUAGGUCGCUGGUAGUACAUGAGGAUCACCCAUGUU [JR_Nu_SSArginiA_Sub020]
[reply] 0

[ask] Decide: is the reported value of apparent KD of MS2 coat protein for UGUGUUGUCCGAAGGAGCGGGACCUAAUAGUGGUAACAUGAGGAUCACCCAUGUAUUUCGUCCCAGGUAGGUCGCGGACAGUGUA [ArgiB-ms2@36] equal to or greater than 0.06 µM?
[reply] 0

[ask] In plain terms: is recorded apparent KD of MS2 coat protein at least 0.06 µM for UUAUUUAACGGAAGGAGCGCGGAAAUUAAAGUGGGUAAACAUGAGGAUCACCCAUGUAAACCGCAGGUAGGUCGCCGAUAUUUAU [#22 Exclusion - Arginine B] ?
[reply] 1

---

system: MS2 coat protein; test: apparent KD of MS2 coat protein; designed switch direction (-1 OFF switch, 1 ON switch): -1; higher = weaker reporter binding; details: Eterna round: R95; input ligand: microRNA oligo, concentration not stated
experimental_endpoint: apparent KD of MS2 coat protein (nM)
Give bare numbers, in nM.

Example cases with answers are listed next.
sequence_input	unit	apparent KD of MS2 coat protein
CGUGACUCAGGAUAUGGAUUAUAUCACAUGAGGAUCACCCAUGUCCAGCGAAAGCUGGAGUCAGAAGGGAGUCACG [Fiskers Ex 5 - 48] (puzzle: Exclusion 5)	nM	70.9
AGUGCGUAUGUGAGGAUAUGCUGGUCCUUGGAUCAGCAGAAGGCACAUGAGGAUCACCCAUGUGGUGUCGUACU [salish99_Bmod_Ex4_005] (puzzle: Brourd's mod of Exclusion 4)	nM	190

Could you now consider this next sequence?
Considering GUCACUAGAGGAUAUACAAUGGUAUAUGAUCCUAGAGACAAACAUGAGGAUCACCCAUGUAGAAGGCUAGUAAA [Exclusion 2 - 1] (puzzle: Exclusion 2) , its apparent KD of MS2 coat protein with MS2 coat protein was recorded as 153
